Target: Transient receptor potential cation channel subfamily V member 1 (Rattus norvegicus, UniProt O35433)
Sequence (O35433 whole entry): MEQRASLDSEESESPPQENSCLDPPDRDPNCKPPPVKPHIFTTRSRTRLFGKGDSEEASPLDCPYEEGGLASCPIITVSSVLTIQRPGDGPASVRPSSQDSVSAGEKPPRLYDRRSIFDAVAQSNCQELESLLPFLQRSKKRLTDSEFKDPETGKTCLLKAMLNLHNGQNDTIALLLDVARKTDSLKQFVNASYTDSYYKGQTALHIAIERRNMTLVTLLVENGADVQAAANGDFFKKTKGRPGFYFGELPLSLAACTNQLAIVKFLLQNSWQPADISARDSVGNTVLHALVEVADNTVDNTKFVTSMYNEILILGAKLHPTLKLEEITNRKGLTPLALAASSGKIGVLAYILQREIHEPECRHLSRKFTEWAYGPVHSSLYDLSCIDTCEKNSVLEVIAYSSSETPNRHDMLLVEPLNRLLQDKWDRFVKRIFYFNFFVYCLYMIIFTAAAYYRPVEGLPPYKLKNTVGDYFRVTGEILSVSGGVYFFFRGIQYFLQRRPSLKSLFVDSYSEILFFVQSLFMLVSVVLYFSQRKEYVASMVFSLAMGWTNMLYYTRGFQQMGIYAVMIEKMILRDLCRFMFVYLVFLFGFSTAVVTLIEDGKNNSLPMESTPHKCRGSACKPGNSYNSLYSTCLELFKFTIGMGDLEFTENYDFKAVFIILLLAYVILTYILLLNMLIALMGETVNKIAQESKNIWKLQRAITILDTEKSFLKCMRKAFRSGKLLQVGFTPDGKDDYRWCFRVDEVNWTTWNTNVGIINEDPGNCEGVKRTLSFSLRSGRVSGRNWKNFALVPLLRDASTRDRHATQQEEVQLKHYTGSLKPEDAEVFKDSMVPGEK
Experiment: Antagonist activity at rat TRPV1 expressed in HEK293 cells assessed as inhibition of capsaicin-induced intracellular Ca2+ level by FLIPR assay
Type: functional, cell-based
pIC50: −log10 of the molar value.
observable: pIC50

Input line: Return pIC50 (reported value) for this compound: CN(C)CCN(C)c1nc2c(c(Nc3ccc(C(F)(F)F)cc3)n1)CCN(c1ncccc1C(F)(F)F)CC2
Output line: 5.35

Input line: Return pIC50 (reported value) for this compound: FC(F)(F)c1ccc(Nc2nc(N3CCN(C4CCC4)CC3)nc3c2CCN(c2ncccc2C(F)(F)F)CC3)cc1
Output line: 6.79

Input line: Return pIC50 (reported value) for this compound: CN(c1nc2c(c(Nc3ccc(C(F)(F)F)cc3)n1)CCN(c1ncccc1C(F)(F)F)CC2)C1CCCNC1 (stereo not drawn)
Output line: 5.81

Input line: Return pIC50 (reported value) for this compound: CC(C)CN1CCN(c2nc3c(c(Nc4ccc(C(F)(F)F)cc4)n2)CCN(c2ncccc2C(F)(F)F)CC3)CC1
Output line: 7.05

Input line: Return pIC50 (reported value) for this compound: CN1CCN(c2nc3c(c(Nc4ccc(C(F)(F)F)cc4)n2)CCN(c2ncccc2C(F)(F)F)CC3)CC1
Output line: 6.30

A: CC(C)N1CCN(c2nc3c(c(Nc4ccc(C(F)(F)F)cc4)n2)CCN(c2ncccc2C(F)(F)F)CC3)CC1
B: CC(C)(C)OC(=O)N1CCCCC1CNc1nc2c(c(Nc3ccc(C(F)(F)F)cc3)n1)CCN(c1ncccc1C(F)(F)F)CC2 (stereo not drawn)
Input line: Returns the identifier with the smallest measured pIC50 among A and B . Refer to your chosen item by its label in the answer.
Output line: A
(A: 6.41, B: 6.64)

* * *

Assay: Aqueous equilibrium solubility of compound in phosphate buffer at pH 2
Format: physicochemical
observable: solubility thermodynamic (µg/mL)

Here's what some known entries look like.
Input line: Return solubility thermodynamic (reported value) for this compound: FC(F)(F)c1ccc(Nc2nc(N3CCN(C4CC4)CC3)nc3c2CCN(c2ncccc2C(F)(F)F)CC3)cc1
Output line: 230

Input line: Return solubility thermodynamic (reported value) for this compound: CN1CCCC(Nc2nc3c(c(Nc4ccc(C(F)(F)F)cc4)n2)CCN(c2ncccc2C(F)(F)F)CC3)C1 (stereo not given)
Output line: 204

a: FC(F)(F)c1ccc(Nc2nc(NCc3ccccn3)nc3c2CCN(c2ncccc2C(F)(F)F)CC3)cc1
b: CC(C)(C)OC(=O)N1CCCCC1CNc1nc2c(c(Nc3ccc(C(F)(F)F)cc3)n1)CCN(c1ncccc1C(F)(F)F)CC2 (stereo not given)
Input line: Returns the identifier with the smallest measured solubility thermodynamic among a and b . Refer to your chosen item by its label in the answer.
Output line: b
(b: 3 µg/mL, a: 224 µg/mL)

* * *

Assay: Clearance in rat
Format: ADME, organism-based
Conditions: in vivo
observable: clearance (mL/min/kg)
Quick reminder: number only, in mL/min/kg, skip the unit.

Input line: Return clearance (reported value) for this molecule: FC(F)(F)c1ccc(Nc2nc(N3CCOCC3)nc3c2CCN(c2ncccc2C(F)(F)F)CC3)cc1
Output line: 51.7

* * *

Experiment: Aqueous equilibrium solubility of compound in phosphate buffer at pH 2
Type: physicochemical
observable: solubility thermodynamic (µg/mL)

Input line: Return solubility thermodynamic (reported value) for this molecule: FC(F)(F)c1ccc(Nc2nc(N3CCNCC3)nc3c2CCN(c2ncccc2C(F)(F)F)CC3)cc1
Output line: 215

Input line: Return solubility thermodynamic (reported value) for this molecule: CCC(CC)N1CCN(c2nc3c(c(Nc4ccc(C(F)(F)F)cc4)n2)CCN(c2ncccc2C(F)(F)F)CC3)CC1
Output line: 243

These data points were gathered from ChEMBL document CHEMBL1629484.
